# TARGET_ENTITY: porcine pancreatic α-amylase (Sus scrofa, UniProt P00690)
# Sequence (P00690 16-511): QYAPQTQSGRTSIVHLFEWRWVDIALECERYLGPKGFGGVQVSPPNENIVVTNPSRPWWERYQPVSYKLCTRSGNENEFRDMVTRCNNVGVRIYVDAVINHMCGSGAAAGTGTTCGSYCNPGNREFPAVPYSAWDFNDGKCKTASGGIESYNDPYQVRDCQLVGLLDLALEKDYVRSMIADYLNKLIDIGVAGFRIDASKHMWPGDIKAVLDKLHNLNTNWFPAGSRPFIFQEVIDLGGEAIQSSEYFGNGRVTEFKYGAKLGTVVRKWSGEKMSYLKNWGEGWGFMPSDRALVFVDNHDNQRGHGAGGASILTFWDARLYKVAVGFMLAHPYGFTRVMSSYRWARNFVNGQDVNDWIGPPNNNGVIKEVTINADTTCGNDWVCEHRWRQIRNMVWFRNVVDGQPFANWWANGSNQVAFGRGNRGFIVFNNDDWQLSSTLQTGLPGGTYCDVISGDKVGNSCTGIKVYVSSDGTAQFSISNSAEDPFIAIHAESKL
OBSERVABLE: IC50 (µM)
// note: answer is a bare numeric in µM

*Q* Specify IC50 for C=CCc1ccc2c(c1)OCO2 and stop.
*A* 70
